B1: mRNA-splicing (parent)
chain: AGUUGCUGCUGGGAGCUCCAGCACAGUGAAAUGGACAGAAGGGCAGAGCAA

variants of: B1; assay: exon inclusion enrichment index; higher = more inclusion; WT1 exon 5 minigene, HEK293
readout-kind: exon inclusion enrichment index
Field format: numeric only.

Give the measured exon inclusion enrichment index of G5C C6U G8C C9U U10C G26A .
2.49

Can you look up the measured exon inclusion enrichment index of C6A U7A C9G U10A for me?
0.286

Sample A29C A30U — what was its exon inclusion enrichment index?
0.0782

Could you tell me which exon inclusion enrichment index is on file for G5A C6U U7A G8U C9A A30G A31U ?
0.0123

Reported exon inclusion enrichment index for A35C C36G : what is it?
0.122

Return reported exon inclusion enrichment index; argument: G5C C6A U7C G8U C9A U10A
0.0885

Name the recorded exon inclusion enrichment index for A37G G38C .
0.249
